Overview of reported %Inh across a group of compounds:
tested on: BMPR1A; settings: concentration: 1 μM, replicates: in singlicate; n = 1;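 note: KINOMEscan kinase panel screen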
value_kind: %Inh (%)

compound | target_of_assay | readout_units | observed
O=C(Nc1ccccc1)Nc1cccc(Oc2ccc3nccn3n2)c1 | BMPR1A | % | 0
Cn1cncc1-c1ccc2ncnc(Nc3ccc(OCc4ccccc4)cc3)c2c1 | BMPR1A | % | 17
Cc1csc(-c2nc(Nc3ccncc3)c3ccccc3n2)n1 | BMPR1A | % | 6
Cc1cccc(-c2nc(Nc3ccc4[nH]ncc4c3)c3ccccc3n2)n1 | BMPR1A | % | 60
Cc1c(Cn2ccn3c(=O)cc(N4CCOCC4)nc23)cccc1C(F)(F)F | BMPR1A | % | 0
O=C(Nc1n[nH]c2nc(-c3nccs3)c(Br)cc12)C1CCCC1 | BMPR1A | % | 0
COC(=O)c1c(-c2ccccc2)c2cc(C(=O)O)ccc2c(=O)n1Cc1ccccc1 | BMPR1A | % | 0
COc1cc2ncn(-c3cc(OCC4CCCO4)c(C(N)=O)s3)c2cc1OC (stereo not shown) | BMPR1A | % | 0
Cc1c(O)cccc1Nc1ccnc2ccc(C(F)(F)F)cc12.Cl | BMPR1A | % | 0
COc1ccccc1CNC(=O)c1cc(C(=O)c2ccccc2C)c[nH]1 | BMPR1A | % | 4
COc1cccc(-c2cc(-c3c[nH]nc3-c3ccccn3)ccn2)c1 | BMPR1A | % | 0
CS(=O)(=O)c1ccc(-c2nc3n(c2-c2ccncc2)CCC3)cc1 | BMPR1A | % | 0
COc1ccccc1-c1ccc2c(NC(=O)C3CC3)n[nH]c2n1 | BMPR1A | % | 0
CC(=O)Nc1nc2cnc(Nc3cc(NC(=O)c4cccc(CCC#N)c4)ccc3C)nc2s1 | BMPR1A | % | 0
CC1=C(C(=O)Nc2cc3cn[nH]c3cc2F)C(c2ccc(C(F)(F)F)cc2)CC(=O)N1 (stereo not shown) | BMPR1A | % | 0
CCCc1ccc(S(=O)(=O)NC2CCN(c3ccnc(Nc4ccc(F)cc4)n3)C2)cc1 (stereo not shown) | BMPR1A | % | 0
Cc1ccccc1-n1cnc2c(N)ncnc21 | BMPR1A | % | 0
COc1cccc(NC(=O)NC2CCN(c3ccnc(Nc4ccc(F)cc4)n3)C2)c1 (stereo not shown) | BMPR1A | % | 0
Cc1ccc(C(=O)Nc2ccc(Nc3ccnc4cc(-c5ccccn5)ccc34)cc2O)cc1.Cl | BMPR1A | % | 0
O=C(Nc1n[nH]c2nc(-c3nccs3)c(Br)cc12)C1CC1 | BMPR1A | % | 0
Cl.O=C(Nc1cccc(-c2nn3ncccc3c2-c2ccnc(Nc3cccnc3)n2)c1)c1c(F)cccc1F | BMPR1A | % | 0
Nc1ncnc2[nH]c(-c3ccccc3)nc12 | BMPR1A | % | 0
Fc1cccc(COc2nnc(-c3ccc4c(c3)CCO4)o2)c1 | BMPR1A | % | 0
CC(C)(C)c1ccc(C(=O)Nc2cn3cc(Cl)ccc3n2)cc1 | BMPR1A | % | 0
Cc1ccc(NC(=O)Nc2cccc(Cl)c2)cc1-c1ccc(C(=O)Nc2ccncc2)cc1 | BMPR1A | % | 0
O=c1cc(N2CCOCC2)nc2n(Cc3cccc(Cl)c3Cl)ccn12 | BMPR1A | % | 0
Cc1cc(-c2ccc3c(c2)CC[C@@H](N[C@@H](C)c2ccccc2)C3)cnc1N.Cl | BMPR1A | % | 0
Cc1cccc(-c2nc(-c3ccc(S(C)(=O)=O)cc3)sc2-c2ccnc(NCCc3ccccc3)c2)c1 | BMPR1A | % | 27
COc1ccc2nc(-c3cccc(C)n3)nc(Nc3ccncc3)c2c1 | BMPR1A | % | 0
O=C(Nc1n[nH]c2cc(-c3cccc(F)c3F)ccc12)C1CC1 | BMPR1A | % | 31
COc1ccc(CNC(=O)NC2CCN(c3ccnc(Nc4cc(OC)c(OC)c(OC)c4)n3)C2)cc1 (stereo not shown) | BMPR1A | % | 1
COc1ccc(Nc2nccc(-c3cccc(NC(=O)c4cc5cc(F)ccc5[nH]4)c3)n2)cc1 | BMPR1A | % | 10
Cn1ccc2ncnc(Oc3ccc(Nc4nc5ccccc5[nH]4)cc3)c21 | BMPR1A | % | 0
Cc1cc(NCC(c2ccccc2)c2ccccc2)nc(NCc2ccc(C(F)(F)F)cc2)n1 | BMPR1A | % | 0
O=S(=O)(c1ccc(-c2ccnc3[nH]ccc23)cc1)N1CCCC1 | BMPR1A | % | 0
O=C(Nc1ccc2c(c1)OCO2)NC1CCN(c2ccnc(Nc3ccc(F)cc3)n2)C1 (stereo not shown) | BMPR1A | % | 0
Cl.Oc1ccc(-c2nc(-c3ccccc3)[nH]c2-c2ccncc2)cc1 | BMPR1A | % | 0
